Source: PubChem BioAssay AID1845211

- Test system: NCI-H322M multicellular tumor spheroids, viability (% test/control)
- test method notes: Anticancer human tumor NCI-H322M cell line growth inhibition
- study conditions: compound alone; run of 12/02/2019
pIC50: −log10 of the molar value.
reported metric: pIC50

Reported pIC50 for NCI-H322M multicellular tumor spheroids, viability (% test/control), given `Cn1nnc2c(C(N)=O)ncn2c1=O` ?
< 4.00

* * *

- System: NCI-H322M multicellular tumor spheroids, viability (% test/control)
- test method notes: Anticancer human tumor NCI-H322M cell line growth inhibition;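 for viability, T/C: spheroids exposed to compound for seven days before readout; 100% = DMSO vehicle control wells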
- study conditions: second compound 0.3 µM; first compound 3 µM; stronger effect = lower value
reported metric: viability, T/C

GET /values?readout=viability, T/C&item= O=C(c1cc(Cc2n[nH]c(=O)c3ccccc23)ccc1F)N1CCN(C(=O)C2CC2)CC1 + CC[C@@]1(O)C(=O)OCc2c1cc1n(c2=O)Cc2cc3c(CN(C)C)c(O)ccc3nc2-1
49.6%

What viability, T/C value was documented for this compound, CNCc1ccc(-c2cc(-c3nc(-c4ccc(S(=O)(=O)C(C)C)cc4)cnc3N)on2)cc1 + CC[C@@]1(O)C(=O)OCc2c1cc1n(c2=O)Cc2cc3c(CN(C)C)c(O)ccc3nc2-1 ?
46.2%

Which measured viability, T/C value corresponds to Cc1sc2c(c1C)C(c1ccc(Cl)cc1)=NC(CC(=O)Nc1ccc(O)cc1)c1nnc(C)n1-2 (centres undefined) + CC[C@@]1(O)C(=O)OCc2c1cc1n(c2=O)Cc2cc3c(CN(C)C)c(O)ccc3nc2-1 ?
58.1%

State the recorded viability, T/C for this entry: Cn1ncnc1[C@H]1c2n[nH]c(=O)c3cc(F)cc(c23)N[C@@H]1c1ccc(F)cc1 + CC[C@@]1(O)C(=O)OCc2c1cc1n(c2=O)Cc2cc3c(CN(C)C)c(O)ccc3nc2-1
44.1%

* * *

- System: NCI-H322M multicellular tumor spheroids, viability (% test/control)
- test method notes: Anticancer human tumor NCI-H322M cell line growth inhibition;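 for viability, T/C: spheroids exposed to compound for seven days before readout; 100% = DMSO vehicle control wells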
- study conditions: second compound 0.03 µM; first compound 3.16 µM; stronger effect = lower value
Hi! Could you tag entries with viability, T/C below 70% as 1, and those at or above as 0? Much appreciated.

Regarding COc1ccc([C@@H](O)c2cc(-c3ncnc4cc(N5CCOCC5)ccc34)c(F)cc2Cl)nn1 + CC[C@@]1(O)C(=O)OCc2c1cc1n(c2=O)Cc2cc3c(CN(C)C)c(O)ccc3nc2-1 , kindly confirm whether its viability, T/C is beneath 70%.
1

Hello, I'm reviewing records and need to know if viability, T/C of COc1cc(C)[nH]c(=O)c1CN1CCc2c(Cl)cc(C(OC)C3COC3)c(Cl)c2C1=O (stereo unspecified) + CC[C@@]1(O)C(=O)OCc2c1cc1n(c2=O)Cc2cc3c(CN(C)C)c(O)ccc3nc2-1 is below 70%. Could you check?
0

Please indicate whether the reported viability, T/C of CC1COCCN1c1cc(-c2ccnn2C)c2ccnc(-c3ccn[nH]3)c2n1 (stereo unspecified) + CC[C@@]1(O)C(=O)OCc2c1cc1n(c2=O)Cc2cc3c(CN(C)C)c(O)ccc3nc2-1 is strictly below 70%.
1

# check: viability, T/C < 70% for [2H]c1nc(C)nc([2H])c1-c1cc(NC[C@@H](C)c2cccc3c(C(=O)NC)ccnc23)ncn1 + CC[C@@]1(O)C(=O)OCc2c1cc1n(c2=O)Cc2cc3c(CN(C)C)c(O)ccc3nc2-1
0

Just wondering, is viability, T/C of Cc1cc(C)c(CNC(=O)c2cc(-c3ccc(CN4CCOCC4)cc3)cc3c2cnn3C2CCCC2)c(=O)[nH]1 + CC[C@@]1(O)C(=O)OCc2c1cc1n(c2=O)Cc2cc3c(CN(C)C)c(O)ccc3nc2-1 below 70%?
0

# TODO verify viability, T/C < 70% strictly for this compound: CC(C)n1c(=O)n(C)c2cnc3cc(F)c(-c4ccc(OCCCN5CCCCC5)nc4)cc3c21 + CC[C@@]1(O)C(=O)OCc2c1cc1n(c2=O)Cc2cc3c(CN(C)C)c(O)ccc3nc2-1
0
